For each of the compounds below, state its growth inhibition.
# testMethodNotes: S. cerevisiae growth inhibition in permissive medium (OD615), pilot counter-assay for S. cerevisiae lifespan shortening project, permissive growth control (AID 705)
# recordedConditions: OD615, 24 h, at 10 µM, active compounds read high
Give bare numbers, in %.

I'm hoping you can list growth inhibition for every compound here, please.
1. Brc1ccc(-c2noc(CCc3ccccc3)n2)o1
2. O=C(Cn1ncc2c1-c1ccccc1OC2)N1CCN(c2ccccn2)CC1
3. COc1ccc(-n2c(SCC(=O)N3CCCC3)nc3c([nH]c4ccccc43)c2=O)cc1
4. Cc1c(C)n(C)c2ccc(C(=O)NCc3cccs3)cc12
5. CCOc1ccc(-c2nnc(N(CC)C(=O)C3CCC3)s2)cc1

1: -9.63; 2: -9.33; 3: -20.2; 4: -23.4; 5: -4.38

I'm hoping you can list growth inhibition for every compound here, please.
1. Cc1ccnc(NC(=O)C2CCC(CNc3c(N4CCCC4)c(=O)c3=O)CC2)c1 (stereo unspecified)
2. CC(C)(NC(=O)N1CCCC1)c1cccc(C(C)(C)NC(=O)N2CCCC2)c1
3. Cc1ccc(-n2c3c(cc(C(=O)NC4CCSC4=O)c2=O)C(=O)CC(C)(C)C3)cc1 (stereo unspecified)
4. Clc1cc(Br)ccc1OCCOCCN1CCOCC1
5. CCc1ccc(C2CC(c3cccc(OC)c3)n3nc(N)nc3N2)cc1 (stereo unspecified)
6. CCCCN1C(=O)c2ccc(C(=O)Nc3c(N)n(CCCC)c(=O)n(C)c3=O)cc2C1=O

1. -3.06
2. 0.795
3. -1.71
4. -3.75
5. -0.21
6. -9.82
